# Test system: Staphylococcus aureus
# test protocol: Antimicrobial activity against Oxacillin-resistant Staphylococcus aureus by broth microdilution method
# Type: functional

{"columns": ["mol", "lt gt eq", "MIC90 (µg/mL)"],
 "data": [
  ["C[C@H]1COc2c(N3CCN(C)CC3)c(F)cc3c(=O)c(C(=O)O)cn1c23.C[C@H]1COc2c(N3CCN(C)CC3)c(F)cc3c(=O)c(C(=O)O)cn1c23.O", ">", 4],
  ["CC(=O)NC[C@H]1CN(c2ccc(N3CCOCC3)c(F)c2)C(=O)O1", "=", 2],
  ["CN[C@H](CC(C)C)C(=O)N[C@H]1C(=O)N[C@@H](CC(N)=O)C(=O)N[C@H]2C(=O)N[C@H]3C(=O)N[C@H](C(=O)N[C@H](C(=O)O)c4cc(O)cc(O)c4-c4cc3ccc4O)[C@H](O)c3ccc(c(Cl)c3)Oc3cc2cc(c3O[C@@H]2O[C@H](CO)[C@@H](O)[C@H](O)[C@H]2O[C@H]2C[C@](C)(N)[C@H](O)[C@H](C)O2)Oc2ccc(cc2Cl)[C@H]1O", "=", 1],
  ["CN[C@H]1C(=O)N[C@@H]2Cc3ccc(cc3)Oc3cc4cc(c3O[C@@H]3O[C@H](C(=O)O)[C@@H](O)[C@H](O)[C@H]3NC(=O)CCCCCCCCC(C)C)Oc3ccc(cc3Cl)[C@@H](O)[C@@H]3NC(=O)[C@H](NC(=O)[C@@H]4NC(=O)[C@@H](NC2=O)c2cc(cc(O)c2Cl)Oc2cc1ccc2O)c1ccc(O)c(c1)-c1c(O[C@H]2O[C@H](CO)[C@@H](O)[C@H](O)[C@@H]2O)cc(O)cc1[C@@H](C(=O)NCCCN(C)C)NC3=O", "=", 0.06],
  ["CCC[C@@H]1C[C@@H](C(=O)N[C@@H]([C@H]2O[C@H](SC)[C@H](O)[C@@H](O)[C@H]2O)[C@H](C)Cl)N(C)C1", ">", 2],
  ["CN(C)[C@@H]1C(O)=C(C(N)=O)C(=O)[C@@]2(O)C(O)=C3C(=O)c4c(O)cccc4[C@@](C)(O)[C@H]3C[C@@H]12", ">", 8]
]}

----------
Each entry below lists one item and its recorded MIC90 value.
# System: Staphylococcus aureus
# test protocol: Antimicrobial activity against Oxacillin-susceptible Staphylococcus aureus by broth microdilution method
# Format: functional
measured attribute: MIC90 (µg/mL)

{"columns": ["compound", "study system", "lt gt eq", "quantitative result"],
 "data": [
  ["CC[C@H]1OC(=O)[C@H](C)[C@@H](O[C@H]2C[C@@](C)(OC)[C@@H](O)[C@H](C)O2)[C@H](C)[C@@H](O[C@@H]2O[C@H](C)C[C@H](N(C)C)[C@H]2O)[C@](C)(O)C[C@@H](C)C(=O)[C@H](C)[C@@H](O)[C@]1(C)O [ERYTHROMYCIN]", "Staphylococcus aureus", ">", 2],
  ["C[C@H]1COc2c(N3CCN(C)CC3)c(F)cc3c(=O)c(C(=O)O)cn1c23.C[C@H]1COc2c(N3CCN(C)CC3)c(F)cc3c(=O)c(C(=O)O)cn1c23.O [LEVOFLOXACIN]", "Staphylococcus aureus", "≤", 0.5],
  ["CN[C@H]1C(=O)N[C@@H]2Cc3ccc(cc3)Oc3cc4cc(c3O[C@@H]3O[C@H](C(=O)O)[C@@H](O)[C@H](O)[C@H]3NC(=O)CCCCCCCCC(C)C)Oc3ccc(cc3Cl)[C@@H](O)[C@@H]3NC(=O)[C@H](NC(=O)[C@@H]4NC(=O)[C@@H](NC2=O)c2cc(cc(O)c2Cl)Oc2cc1ccc2O)c1ccc(O)c(c1)-c1c(O[C@H]2O[C@H](CO)[C@@H](O)[C@H](O)[C@@H]2O)cc(O)cc1[C@@H](C(=O)NCCCN(C)C)NC3=O [DALBAVANCIN]", "Staphylococcus aureus", "=", 0.06],
  ["CN(C)[C@@H]1C(O)=C(C(N)=O)C(=O)[C@@]2(O)C(O)=C3C(=O)c4c(O)cccc4[C@@](C)(O)[C@H]3C[C@@H]12 [TETRACYCLINE]", "Staphylococcus aureus", "≤", 4],
  ["CN[C@H](CC(C)C)C(=O)N[C@H]1C(=O)N[C@@H](CC(N)=O)C(=O)N[C@H]2C(=O)N[C@H]3C(=O)N[C@H](C(=O)N[C@H](C(=O)O)c4cc(O)cc(O)c4-c4cc3ccc4O)[C@H](O)c3ccc(c(Cl)c3)Oc3cc2cc(c3O[C@@H]2O[C@H](CO)[C@@H](O)[C@H](O)[C@H]2O[C@H]2C[C@](C)(N)[C@H](O)[C@H](C)O2)Oc2ccc(cc2Cl)[C@H]1O [VANCOMYCIN]", "Staphylococcus aureus", "=", 1],
  ["CCC[C@@H]1C[C@@H](C(=O)N[C@@H]([C@H]2O[C@H](SC)[C@H](O)[C@@H](O)[C@H]2O)[C@H](C)Cl)N(C)C1 [CLINDAMYCIN]", "Staphylococcus aureus", "≤", 0.25],
  ["CC(=O)NC[C@H]1CN(c2ccc(N3CCOCC3)c(F)c2)C(=O)O1 [LINEZOLID]", "Staphylococcus aureus", "=", 2]
]}

----------
# System: Staphylococcus aureus
# test protocol: Antimicrobial activity against Oxacillin-resistant Staphylococcus aureus assessed as percent resistant isolate by broth microdilution method
# Format: functional
Could you label it true (1) if measured Activity is 20% or higher, and false (0) otherwise?

{"columns": ["mol", "study system", "group label"],
 "data": [
  ["CN(C)[C@@H]1C(O)=C(C(N)=O)C(=O)[C@@]2(O)C(O)=C3C(=O)c4c(O)cccc4[C@@](C)(O)[C@H]3C[C@@H]12", "Staphylococcus aureus", "false (0)"],
  ["C[C@H]1COc2c(N3CCN(C)CC3)c(F)cc3c(=O)c(C(=O)O)cn1c23.C[C@H]1COc2c(N3CCN(C)CC3)c(F)cc3c(=O)c(C(=O)O)cn1c23.O", "Staphylococcus aureus", "true (1)"],
  ["CN[C@H](CC(C)C)C(=O)N[C@H]1C(=O)N[C@@H](CC(N)=O)C(=O)N[C@H]2C(=O)N[C@H]3C(=O)N[C@H](C(=O)N[C@H](C(=O)O)c4cc(O)cc(O)c4-c4cc3ccc4O)[C@H](O)c3ccc(c(Cl)c3)Oc3cc2cc(c3O[C@@H]2O[C@H](CO)[C@@H](O)[C@H](O)[C@H]2O[C@H]2C[C@](C)(N)[C@H](O)[C@H](C)O2)Oc2ccc(cc2Cl)[C@H]1O", "Staphylococcus aureus", "false (0)"],
  ["CC[C@H]1OC(=O)[C@H](C)[C@@H](O[C@H]2C[C@@](C)(OC)[C@@H](O)[C@H](C)O2)[C@H](C)[C@@H](O[C@@H]2O[C@H](C)C[C@H](N(C)C)[C@H]2O)[C@](C)(O)C[C@@H](C)C(=O)[C@H](C)[C@@H](O)[C@]1(C)O", "Staphylococcus aureus", "true (1)"],
  ["CC(=O)NC[C@H]1CN(c2ccc(N3CCOCC3)c(F)c2)C(=O)O1", "Staphylococcus aureus", "false (0)"],
  ["CCC[C@@H]1C[C@@H](C(=O)N[C@@H]([C@H]2O[C@H](SC)[C@H](O)[C@@H](O)[C@H]2O)[C@H](C)Cl)N(C)C1", "Staphylococcus aureus", "true (1)"]
]}

----------
# Tested on: Streptococcus
# test protocol: Antimicrobial activity against Beta-hemolytic Streptococcus assessed as percent susceptible isolate by broth microdilution method
# Type: functional
Each entry below lists one item and its recorded Activity value.
measured attribute: Activity (%)

{"columns": ["mol", "study system", "measured attribute", "uom", "quantitative result"],
 "data": [
  ["CC(=O)NC[C@H]1CN(c2ccc(N3CCOCC3)c(F)c2)C(=O)O1", "Streptococcus", "Activity", "%", 100],
  ["CN[C@H](CC(C)C)C(=O)N[C@H]1C(=O)N[C@@H](CC(N)=O)C(=O)N[C@H]2C(=O)N[C@H]3C(=O)N[C@H](C(=O)N[C@H](C(=O)O)c4cc(O)cc(O)c4-c4cc3ccc4O)[C@H](O)c3ccc(c(Cl)c3)Oc3cc2cc(c3O[C@@H]2O[C@H](CO)[C@@H](O)[C@H](O)[C@H]2O[C@H]2C[C@](C)(N)[C@H](O)[C@H](C)O2)Oc2ccc(cc2Cl)[C@H]1O", "Streptococcus", "Activity", "%", 100],
  ["CC[C@H]1OC(=O)[C@H](C)[C@@H](O[C@H]2C[C@@](C)(OC)[C@@H](O)[C@H](C)O2)[C@H](C)[C@@H](O[C@@H]2O[C@H](C)C[C@H](N(C)C)[C@H]2O)[C@](C)(O)C[C@@H](C)C(=O)[C@H](C)[C@@H](O)[C@]1(C)O", "Streptococcus", "Activity", "%", 79.6],
  ["CC1(C)S[C@@H]2[C@H](NC(=O)Cc3ccccc3)C(=O)N2[C@H]1C(=O)O", "Streptococcus", "Activity", "%", 99.9],
  ["CCC[C@@H]1C[C@@H](C(=O)N[C@@H]([C@H]2O[C@H](SC)[C@H](O)[C@@H](O)[C@H]2O)[C@H](C)Cl)N(C)C1", "Streptococcus", "Activity", "%", 91.4],
  ["CN[C@H]1C(=O)N[C@@H]2Cc3ccc(cc3)Oc3cc4cc(c3O[C@@H]3O[C@H](C(=O)O)[C@@H](O)[C@H](O)[C@H]3NC(=O)CCCCCCCCC(C)C)Oc3ccc(cc3Cl)[C@@H](O)[C@@H]3NC(=O)[C@H](NC(=O)[C@@H]4NC(=O)[C@@H](NC2=O)c2cc(cc(O)c2Cl)Oc2cc1ccc2O)c1ccc(O)c(c1)-c1c(O[C@H]2O[C@H](CO)[C@@H](O)[C@H](O)[C@@H]2O)cc(O)cc1[C@@H](C(=O)NCCCN(C)C)NC3=O", "Streptococcus", "Activity", "%", 100],
  ["CO/N=C(\\C(=O)N[C@@H]1C(=O)N2C(C(=O)O)=C(CSc3nc(=O)c(O)nn3C)CS[C@H]12)c1csc(N)n1", "Streptococcus", "Activity", "%", 99.9],
  ["C[C@H]1COc2c(N3CCN(C)CC3)c(F)cc3c(=O)c(C(=O)O)cn1c23.C[C@H]1COc2c(N3CCN(C)CC3)c(F)cc3c(=O)c(C(=O)O)cn1c23.O", "Streptococcus", "Activity", "%", 98.6]
]}
